- Target Or System: T1, recombinant human TRAIL R1 (DR4)/Fc chimera (human, UniProt O00220 24-239)
- T1 construct: bought (R&D Systems); not shown: Fc of the bought chimera (R&D Systems)
- T1 sequence: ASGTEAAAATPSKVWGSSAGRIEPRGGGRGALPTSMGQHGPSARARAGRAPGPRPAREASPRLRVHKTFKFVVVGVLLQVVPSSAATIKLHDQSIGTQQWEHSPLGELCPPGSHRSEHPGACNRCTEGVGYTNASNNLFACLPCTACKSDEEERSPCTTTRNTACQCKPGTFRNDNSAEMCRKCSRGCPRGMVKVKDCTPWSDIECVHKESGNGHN
- Assay Protocol: SPR (Biacore), ATRIMER
Measured Attribute: kon (M⁻¹ s⁻¹)

{"Binder": "119p83P1H1 (designed binder, ATRIMER from pANA19) EPPTQKPKKIVNAKKDVVNTKMFEELKSRLDTLAQEVALLKEQQALQTVCLKGTKVHMKCFLAFTQTKTFHEASEDCISRGGTLSTPQTGSENDALYEYLRQSVGNEAEIWLGLNGWLEGVGWVDMTGARIAYKNWTQRHSGQPDGGWPFSNENCAVLSGAANGKWFDKRCRDQLPYICQFGIV", "Measured Attribute": "kon", "Units": "M⁻¹ s⁻¹", "Val": 221000}
{"Binder": "119p94P1C1 (designed binder, ATRIMER from pANA19) EPPTQKPKKIVNAKKDVVNTKMFEELKSRLDTLAQEVALLKEQQALQTVCLKGTKVHMKCFLAFTQTKTFHEASEDCISRGGTLSTPQTGSENDALYEYLRQSVGNEAEIWLGLNGWLEGVGWVDMTGARIAYKNWAISDERQPDGGWPFSNENCAVLSGAANGKWFDKRCRDQLPYICQFGIV", "Measured Attribute": "kon", "Units": "M⁻¹ s⁻¹", "Val": 141000}
{"Binder": "119p94P1F4 (designed binder, ATRIMER from pANA19) EPPTQKPKKIVNAKKDVVNTKMFEELKSRLDTLAQEVALLKEQQALQTVCLKGTKVHMKCFLAFTQTKTFHEASEDCISRGGTLSTPQTGSENDALYEYLRQSVGNEAEIWLGLNGWLEGVGWVDMTGARIAYKNWAAVTMEQPDGGWPFSNENCAVLSGAANGKWFDKRCRDQLPYICQFGIV", "Measured Attribute": "kon", "Units": "M⁻¹ s⁻¹", "Val": 125000}

Where these numbers come from: patent US20120021995A1
